tested on: A549; experiment: 72-h MTT cytotoxicity assay, A549; type: cell-based; conditions: A549 human tumour cell line
property-name: pIC50
Lab note: report pIC50 as minus log10 of the concentration in molar units, number only.

Some entries whose results are on file:
INSERT INTO assay_data (chemical_structure, experimental_value) VALUES
  ('Cc1nc2c(s1)-c1nc(Nc3ccc(N(C)C)cc3)ncc1CC2', 5.10),
  ('Cc1nc2c(s1)-c1nc(Nc3ccc(Cl)nc3)ncc1CC2', 5.48),
  ('Cc1nc2c(s1)-c1nc(Nc3ccc(C(F)(F)F)cc3)ncc1CC2', 5.55),
  ('Cc1nc2c(s1)-c1nc(Nc3cccc([N+](=O)[O-])c3)ncc1CC2', 6.17),
  ('COc1ccc(Nc2ncc3c(n2)-c2sc(C)nc2CC3)cn1', 5.22),
  ('Cc1nc2c(s1)-c1nc(Nc3ccc(O)cc3)ncc1CC2', 5.38);

Recall and state the measured pIC50 for `Cc1nc2c(s1)-c1nc(Nc3cccc(O)c3)ncc1CC2` . 5.60

Recall and state the measured pIC50 for `Cc1nc2c(s1)-c1nc(Nc3ccc(N4CCOCC4)cc3)ncc1CC2` . 5.46

----------
Hi! I'm sharing some IC50 results obtained with Cyclin E - CDK2 (Homo sapiens, UniProt P24941).
Report the value in nM with no unit label.

INSERT INTO results (chemical_structure, endpoint_unit, experimental_value) VALUES
  ('Cc1nc2c(s1)-c1nc(Nc3cccc(O)c3)ncc1CC2', 'nM', 20);

Recall and state the measured IC50 for `Cc1nc2c(s1)-c1nc(Nc3cccc([N+](=O)[O-])c3)ncc1CC2` . 50

Recall and state the measured IC50 for `Cc1nc2c(s1)-c1nc(Nc3ccc(Cl)nc3)ncc1CC2` . 49

Recall and state the measured IC50 for `Cc1nc2c(s1)-c1nc(Nc3ccc(N4CCOCC4)cc3)ncc1CC2` . 400

----------
target: Cyclin D1 - CDK4 (Homo sapiens); assay: Cyclin D1 - CDK4 kinase inhibition assay; conditions: [ATP] = 100 μM
Sequence (P11802 whole entry): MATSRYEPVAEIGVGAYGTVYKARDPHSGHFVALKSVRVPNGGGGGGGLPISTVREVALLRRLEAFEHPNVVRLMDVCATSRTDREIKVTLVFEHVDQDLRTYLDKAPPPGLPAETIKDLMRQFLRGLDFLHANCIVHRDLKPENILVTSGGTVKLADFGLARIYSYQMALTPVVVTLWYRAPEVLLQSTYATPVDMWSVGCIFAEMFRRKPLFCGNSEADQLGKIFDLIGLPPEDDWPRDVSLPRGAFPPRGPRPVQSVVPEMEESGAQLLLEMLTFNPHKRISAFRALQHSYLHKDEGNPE
Sequence (P24385 whole entry partner): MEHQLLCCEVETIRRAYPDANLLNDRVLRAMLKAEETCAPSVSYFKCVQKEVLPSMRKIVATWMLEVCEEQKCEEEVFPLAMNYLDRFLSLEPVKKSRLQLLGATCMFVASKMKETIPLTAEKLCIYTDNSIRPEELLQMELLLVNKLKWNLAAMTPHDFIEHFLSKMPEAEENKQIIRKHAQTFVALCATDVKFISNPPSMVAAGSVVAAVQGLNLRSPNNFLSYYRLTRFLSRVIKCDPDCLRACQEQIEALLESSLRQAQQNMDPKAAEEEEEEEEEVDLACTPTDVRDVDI
# IC50 per entry

Some entries whose results are on file:
INSERT INTO assay_data (compound, experimental_value) VALUES
  ('Cc1nc2c(s1)-c1nc(Nc3ccc(N4CCOCC4)cc3)ncc1CC2 [Cpd 4]', '> 100 µM'),
  ('Cc1nc2c(s1)-c1nc(N(C)c3cccc([N+](=O)[O-])c3)ncc1CC2 [Cpd 9]', '> 80 µM');

// below: IC50 requested for another compound
For Cyclin D1 - CDK4 (Homo sapiens), give the measured IC50 of the entry Cc1nc2ccc3cnc(N(C)c4cccc([N+](=O)[O-])c4)nc3c2s1 [Cpd 10] > 40 µM
